Reported Emax values for the following compounds.
system.under.test: F508delCFTR (Homo sapiens, UniProt P13569, DEL508-508)
Construct: expressed in transfected cells; host or cells: CFBE41o- human lung derived epithelial cells (CFBE41o-F508delCFTR-HRP), doxycycline-inducible
Sequence (P13569 with tags, fused parts or gaps DEL508-508): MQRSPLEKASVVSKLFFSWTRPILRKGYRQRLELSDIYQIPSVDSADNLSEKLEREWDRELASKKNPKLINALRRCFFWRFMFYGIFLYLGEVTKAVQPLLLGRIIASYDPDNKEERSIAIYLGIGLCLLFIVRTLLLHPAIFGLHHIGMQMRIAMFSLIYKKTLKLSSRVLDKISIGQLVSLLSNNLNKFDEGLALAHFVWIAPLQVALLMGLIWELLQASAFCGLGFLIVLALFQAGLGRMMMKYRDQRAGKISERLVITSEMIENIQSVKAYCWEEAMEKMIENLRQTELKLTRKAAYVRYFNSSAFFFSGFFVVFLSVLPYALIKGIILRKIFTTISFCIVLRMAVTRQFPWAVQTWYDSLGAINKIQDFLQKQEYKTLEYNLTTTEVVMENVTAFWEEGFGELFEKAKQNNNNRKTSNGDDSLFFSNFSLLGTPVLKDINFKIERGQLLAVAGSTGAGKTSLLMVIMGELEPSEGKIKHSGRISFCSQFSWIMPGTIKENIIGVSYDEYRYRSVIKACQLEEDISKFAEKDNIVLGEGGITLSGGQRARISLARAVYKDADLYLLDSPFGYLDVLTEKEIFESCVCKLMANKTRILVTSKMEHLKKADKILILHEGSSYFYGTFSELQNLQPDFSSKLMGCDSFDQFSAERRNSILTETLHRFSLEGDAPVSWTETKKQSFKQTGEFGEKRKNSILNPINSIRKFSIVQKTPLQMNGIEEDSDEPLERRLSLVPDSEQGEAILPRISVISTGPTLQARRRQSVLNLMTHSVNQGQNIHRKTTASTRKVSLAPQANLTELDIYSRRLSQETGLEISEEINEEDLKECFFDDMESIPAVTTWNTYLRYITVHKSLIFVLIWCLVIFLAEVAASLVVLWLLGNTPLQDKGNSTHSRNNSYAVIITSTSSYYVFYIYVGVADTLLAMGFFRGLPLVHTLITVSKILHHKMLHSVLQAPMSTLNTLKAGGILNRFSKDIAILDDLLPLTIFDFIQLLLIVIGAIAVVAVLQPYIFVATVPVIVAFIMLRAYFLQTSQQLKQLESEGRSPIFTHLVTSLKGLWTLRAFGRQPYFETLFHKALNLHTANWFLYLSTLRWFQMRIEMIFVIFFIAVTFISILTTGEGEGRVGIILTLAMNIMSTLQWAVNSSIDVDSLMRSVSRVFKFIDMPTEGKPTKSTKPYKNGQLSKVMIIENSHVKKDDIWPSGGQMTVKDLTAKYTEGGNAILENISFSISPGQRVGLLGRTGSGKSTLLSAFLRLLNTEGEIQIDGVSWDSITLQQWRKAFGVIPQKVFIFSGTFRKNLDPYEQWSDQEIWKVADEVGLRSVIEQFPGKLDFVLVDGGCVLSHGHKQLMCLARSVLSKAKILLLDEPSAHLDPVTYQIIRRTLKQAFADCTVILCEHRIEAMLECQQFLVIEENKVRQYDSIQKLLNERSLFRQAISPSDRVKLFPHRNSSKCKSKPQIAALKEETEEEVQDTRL
experimental.protocol: Cell Surface Expression-Horse Radish Peroxidase (CSE-HRP) Assay;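 further: % of on-plate positive control chromenyl benzoic acid corrector at 2 or 3 µM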
Format: cell-based
experimental.conditions: without co-corrector; maximum at any tested concentration; read-out: Maximum % activity (without co-corrector)

O=C(NS(=O)(=O)c1ccc2c(c1)CCC2)C1(c2ccc(Cl)cc2Cl)CC1	< 50%
COc1ccc(C)c(C)c1C1(C(=O)NS(=O)(=O)c2cccc3ncccc23)CC1	> 150%
CC(C)COc1ncc(N(C)C)cc1C1(C(=O)NS(=O)(=O)c2cccc3ncccc23)CC1	> 150%
O=C(NS(=O)(=O)c1ccccc1)C1(c2ccc(Cl)c(Cl)c2)CC1	< 50%
COc1ncc(C2CCC2)c(C)c1C1(C(=O)NS(=O)(=O)c2cccc3cnn(C)c23)CC1	50 to 150%

Qu. Answer with reported Emax of O=C(NS(=O)(=O)c1cccc(Cl)c1)C1(c2ccc(Cl)cc2Cl)CC1
Ans. < 50%

Qu. Answer with reported Emax of COc1cc(C2(C(=O)NS(=O)(=O)c3cccc4ccccc34)CC2)ccc1C
Ans. > 150%

Qu. Answer with reported Emax of CCCS(=O)(=O)NC(=O)C1(c2ccc(Cl)cc2Cl)CC1
Ans. < 50%
